Test system: DMS-114
Test Protocol: NCI tumour cell line growth inhibition, 48 h
Calls of active or inactive are those of the source. No stated cut-off is given here; in the data, active = GI50 up to about 1.1 µM and inactive = higher.
Metric: GI50

[[record]]
compound = "O=C1/C(=C/c2ccccc2)CCC/C1=C\\c1ccccc1 [2,6-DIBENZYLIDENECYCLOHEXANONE]"
metric = "GI50"
reported_value = "9.68 µM (inactive)"

[[record]]
compound = "CC(C)(Oc1ccc2c(=O)cc(-c3ccc(Cl)cc3)oc2c1)C(=O)Nc1c(Cl)cccc1Cl"
metric = "GI50"
reported_value = "> 100 µM (inactive)"


**Q:** // returns reported GI50 for input CC(=O)c1cccc(NC(=O)C(=O)C(C(=O)c2ccccc2F)C2OC(=O)c3ccccc32)c1 (stereo not drawn)
**A:** 31 µM (inactive)

###

Test system: MCF7
Test Protocol: NCI tumour cell line growth inhibition, 48 h
The source made the active and inactive calls. No stated cut-off is given here; in the data, active = GI50 up to about 1.1 µM and inactive = higher.
Hi there, I'd appreciate the recorded GI50 for every entry that follows.

In the examples that follow, each entry is paired with its recorded GI50.
[[record]]
compound = "CN(C(=O)C1=CCCCCC1)c1ccccc1I"
metric = "GI50"
reported_value = "51.5 µM (inactive)"

[[record]]
compound = "CCCCCCCCCCCCCCCCCc1nc(C#N)c(N)o1"
metric = "GI50"
reported_value = "> 100 µM (inactive)"

[[record]]
compound = "CN1CCN(Cc2nc3cccc4c3c([n+]2[O-])-c2ccccc2-4)CC1"
metric = "GI50"
reported_value = "12.8 µM (inactive)"

[[record]]
compound = "Cc1ccc2c(c1)CC1(C2)Cc2ccc(C)cc2C1=O (stereo unspecified)"
metric = "GI50"
reported_value = "24.7 µM (inactive)"

[[record]]
compound = "COC1=C(Br)[C@H](O)[C@@]2(C=C1Br)CC(C(=O)NCCCOc1c(Br)cc(C(O)CNC(C)=O)cc1Br)=NO2 (stereo partly specified) [APLYSINAMISINE III]"
metric = "GI50"
reported_value = "6.18 µM (inactive)"


Then this compound:
**Q:** // returns reported GI50 for input CC(C)C1=CC(=O)[C@@](C)(C2[C@H](O)C[C@@]3(C)[C@@H]4CC=C5[C@@H](CC[C@@H](OC6OCC(O)C(O)C6OC6OC(C)C(O)C(O)C6O)C5(C)C)[C@]4(C)C(=O)C[C@]23C)O1 (stereo partly specified)
**A:** > 100 µM (inactive)

###

Test system: SK-OV-3
Test Protocol: NCI tumour cell line growth inhibition, 48 h
The source made the active and inactive calls. No stated cut-off is given here; in the data, active = GI50 up to about 1.1 µM and inactive = higher.
# valid calls are active, inactive; nothing else

Field: example entries. Status: answers known.
[[record]]
molecule = "COc1ccc(C(=O)O)c(Cc2cccc3ccccc23)c1"
subject_of_test = "SK-OV-3"
class_name = "inactive"

[[record]]
molecule = "O=c1cc(-c2ccccc2)[nH]c2cccc(S)c12"
subject_of_test = "SK-OV-3"
class_name = "active"

[[record]]
molecule = "CC(=O)c1cccc(NC(=O)C(=O)C(C(=O)c2ccccc2F)C2OC(=O)c3ccccc32)c1 (centres undefined)"
subject_of_test = "SK-OV-3"
class_name = "inactive"

[[record]]
molecule = "CN(C(=O)C1=CCCCCC1)c1ccccc1I"
subject_of_test = "SK-OV-3"
class_name = "inactive"

[[record]]
molecule = "O=c1cc(NNc2ccccc2)[nH]c(=O)[nH]1"
subject_of_test = "SK-OV-3"
class_name = "inactive"


**Q:** Outcome logged for "CN1CCN=C1c1nnn(-c2ccc([N+](=O)[O-])cc2)c1-c1ccccc1" in this assay:
**A:** inactive

**Q:** Outcome logged for "C=CC(=O)N1C/C(=C\c2ccc([N+](=O)[O-])cc2)C(=O)/C(=C/c2ccc([N+](=O)[O-])cc2)C1" in this assay:
**A:** inactive

**Q:** Outcome logged for Cc1ncc([N+](=O)[O-])n1CC[N+](C)([O-])CCCCn1ccnc1[N+](=O)[O-] (centres undefined) in this assay:
**A:** inactive

**Q:** Outcome logged for "CC(=O)NCCCCN(CCCNC(C)=O)C(=O)OCc1ccccc1" in this assay:
**A:** inactive

**Q:** Outcome logged for "CCc1nc(N)nc(N)c1-c1ccc(Cl)c(Cl)c1" in this assay:
**A:** inactive

**Q:** Outcome logged for CC/C=C\C/C=C\C/C=C\CCCCCCCC(=O)OCC(O)CO (centres undefined) in this assay:
**A:** inactive

**Q:** Outcome logged for CCOc1ccc(NC(=O)C(=O)C2C(=O)Nc3ccccc3[S+]2[O-])cc1 (centres undefined) in this assay:
**A:** inactive

**Q:** Outcome logged for "O=C(CSCC(=O)N/N=C/c1ccccc1)N/N=C\c1ccccc1" in this assay:
**A:** inactive

**Q:** Outcome logged for "O=C1c2cccnc2-c2nccc3ccnc1c23" in this assay:
**A:** inactive

**Q:** Outcome logged for Oc1ccccc1C1C=C(c2ccccc2)NC(N2CCCCC2)=C1c1nc2ccccc2[nH]1 (centres undefined) in this assay:
**A:** inactive

**Q:** Outcome logged for "COc1ccc(-c2cc(=O)c3c(OC)c(O)c(OC)cc3o2)cc1" in this assay:
**A:** inactive

**Q:** Outcome logged for "COc1cc2cnc3c4cc(OCc5ccccc5)ccc4ccc3c2cc1OC" in this assay:
**A:** inactive

**Q:** Outcome logged for "N#CN=C(N(Cc1ccccc1)Cc1ccccc1)N(Cc1ccccc1)Cc1ccccc1" in this assay:
**A:** inactive

###

Test system: OVCAR-4
Test Protocol: NCI tumour cell line growth inhibition, 48 h
Activity calls are given as the source filed them. No stated cut-off is given here; in the data, active = GI50 up to about 1.1 µM and inactive = higher.
Hi there, I'd appreciate the recorded GI50 for every entry that follows.

In the examples that follow, each entry is paired with its recorded GI50.
[[record]]
chemical_string = "OCCOCCN1CCN(c2nc(N3CCCC3)c3nc(Cl)c(NCc4ccccc4)nc3n2)CC1"
subject_of_test = "OVCAR-4"
reported_value = "15 µM (inactive)"

[[record]]
chemical_string = "COc1cccc(-c2[nH]c3cc4c(cc3c(=O)c2C(=O)O)OCO4)c1"
subject_of_test = "OVCAR-4"
reported_value = "28.6 µM (inactive)"


Then this compound:
**Q:** Entry "CCOC(=O)c1cc(-c2ccc(-c3cc(C(=O)OCC)c(C#N)c(N)c3C#N)cc2)c(C#N)c(N)c1C#N" , system OVCAR-4: what GI50 was measured?
**A:** > 100 µM (inactive)

###

Tested on: CCRF-CEM
Test Protocol: NCI tumour cell line growth inhibition, 48 h
Active and inactive are the calls of the source. No stated cut-off is given here; in the data, active = GI50 up to about 1.1 µM and inactive = higher.
# valid calls are t for active, f for inactive; nothing else

[[record]]
compound = "CO/C=C(/C(=O)OC)c1ccccc1[C@@H]1CC1c1cccc(F)c1 (stereo partly drawn)"
class_name = "f"

[[record]]
compound = "Nc1c(C(=O)c2ccc(Cl)cc2)[nH]c(Nc2ccc(Cl)cc2)c1C(=S)Nc1ccccc1"
class_name = "f"

[[record]]
compound = "O=C1NC(NNc2ccccc2)=N/C1=C\\c1ccccc1O"
class_name = "t"

[[record]]
compound = "Nc1nc(N)c2ncn(-c3ccccc3)c2n1"
class_name = "f"

[[record]]
compound = "O=C1/C(=C/c2ccccc2)CCC/C1=C\\c1ccccc1"
class_name = "f"


**Q:** Outcome logged for "CC(=O)NCCCCN(CCCNC(C)=O)C(=O)OCc1ccccc1" in this assay:
**A:** f

**Q:** Outcome logged for "O=C(CCc1ccc(O)c(O)c1)OCCc1ccccc1" in this assay:
**A:** f

**Q:** Outcome logged for "CCCC(=O)Oc1ccc2c(C)cc(=O)oc2c1OC(=O)CCC" in this assay:
**A:** f

**Q:** Outcome logged for "O=c1c2ccccc2[nH]c(=S)n1-c1ccc(/N=N/c2cccc3cc(O)ccc23)cc1" in this assay:
**A:** f

###

Tested on: NCI-H460
Test Protocol: NCI tumour cell line growth inhibition, 48 h
Active and inactive are the calls of the source. No stated cut-off is given here; in the data, active = GI50 up to about 1.1 µM and inactive = higher.
# valid calls are t = active, f = inactive; nothing else

Field: example entries. Status: answers known.
[[record]]
compound = "O=C(NO)c1cccc(OCc2ccc(Br)cc2)c1"
subject_of_test = "NCI-H460"
class_name = "f"

[[record]]
compound = "COc1ccc(C(=O)O)c(Cc2cccc3ccccc23)c1"
subject_of_test = "NCI-H460"
class_name = "f"

[[record]]
compound = "CCC(=O)OC1CCn2c1nc1c2C(=O)C(C)=C(NC(C)=O)C1=O (centres undefined)"
subject_of_test = "NCI-H460"
class_name = "f"

[[record]]
compound = "O=c1[nH]c2cc(C(F)(F)F)ccc2nc1C(F)(F)F"
subject_of_test = "NCI-H460"
class_name = "f"

[[record]]
compound = "CC(C)N(C(=O)C12C3C4C5C3C1(C#N)C5C42)C(C)C (centres undefined)"
subject_of_test = "NCI-H460"
class_name = "f"

[[record]]
compound = "N=C(c1ccc2ccccc2c1)c1ccccc1Cc1ccccc1"
subject_of_test = "NCI-H460"
class_name = "f"

[[record]]
compound = "CC(=O)[O-].[Zn+].c1ccc(/C(=N\\Nc2ccccn2)c2ccccn2)cc1"
subject_of_test = "NCI-H460"
class_name = "t"

[[record]]
compound = "C[C@@H]1O[C@]2(O)[C@@H]3CCCN3S(=O)(=O)CCN2C1=O"
subject_of_test = "NCI-H460"
class_name = "f"

[[record]]
compound = "O=c1cc(-c2ccccc2)[nH]c2cccc(S)c12"
subject_of_test = "NCI-H460"
class_name = "t"

[[record]]
compound = "O=C(O)C(Br)C(Br)C(=O)O (centres undefined)"
subject_of_test = "NCI-H460"
class_name = "f"


**Q:** Outcome logged for C/C=C/C(C#N)O[Si](C)(C)C (centres undefined) in this assay:
**A:** f

**Q:** Outcome logged for COC(=O)C(=O)C(C(=O)OC)C(=O)C(=O)Nc1cc(Cl)c(Cl)cc1Cl (centres undefined) in this assay:
**A:** f

**Q:** Outcome logged for "O=C(CSCC(=O)N/N=C/c1ccccc1)N/N=C\c1ccccc1" in this assay:
**A:** f

**Q:** Outcome logged for "O=C1C=C(Br)c2c(-c3ccccc3)oc3cccc1c23" in this assay:
**A:** f

**Q:** Outcome logged for "CCOC(=O)/C=C(/C(=O)OCC)n1ccc(=O)n(CC(=O)OCC)c1=O" in this assay:
**A:** f
